assay: in vitro; conditions: pig
Listing: CC50 of selected compounds

CC50 lookup needed for Cc1ccc(S(=O)(=O)N(C2=NOC3CCCCCCC23)S(=O)(=O)c2ccc(C)cc2)cc1 (stereo not drawn) , thanks.
> 50 µM

Also check O=[N+]([O-])c1ccccc1S(=O)(=O)NC1=NOC2(CCCCCCC2)C1
> 50 µM

Also check O=S(=O)(NC1=NOC2(CCCCCCC2)C1)c1ccc(F)cc1F
> 50 µM

Also check O=S(=O)(NC1=NOC2(CCCCCCC2)C1)c1ccccc1
> 50 µM

Also check Cc1cc(C)c(S(=O)(=O)NC2=NOC3(CCCCCCC3)C2)c(C)c1
> 50 µM

Also check O=S(=O)(c1cccnc1)N(C1=NOC2CCCCCCC12)S(=O)(=O)c1cccnc1 (stereo not drawn)
> 50 µM

###

experiment: in vitro; settings: African green monkey
Assay readout: CC50

Look over these answered cases.
- Molecule: "NC(=O)c1nc(F)c[nH]c1=O [Favipiravir, reference compound]"
  CC50: "> 1000 µM"
- Molecule: "O=S(=O)(c1ccccc1)N(C1=NOC2(CCCCCCC2)C1)S(=O)(=O)c1ccccc1 [4c]"
  CC50: "> 50 µM"
- Molecule: "O=S(=O)(c1ccc(F)cc1F)N(C1=NOC2CCCCCCC12)S(=O)(=O)c1ccc(F)cc1F (centres unmarked) [5g]"
  CC50: "> 50 µM"
- Molecule: "O=S(=O)(Cc1ccccc1)N(C1=NOC2CCCCCCC12)S(=O)(=O)Cc1ccccc1 (centres unmarked) [5b]"
  CC50: "> 50 µM"

CC50 lookup needed for CS(=O)(=O)N(C1=NOC2(CCCCCCC2)C1)S(C)(=O)=O [4a] , thanks.
> 50 µM

###

assay: in vitro; settings: pig
Listing: CC50 of selected compounds

Look over these answered cases.
- Compound: "CS(=O)(=O)NC1=NOC2(CCCCCCC2)C1"
  Measurement: "> 50 µM"
- Compound: "O=[N+]([O-])c1ccc(S(=O)(=O)N(C2=NOC3CCCCCCC23)S(=O)(=O)c2ccc([N+](=O)[O-])cc2)cc1 (centres unmarked)"
  Measurement: "41 µM"

CC50 lookup needed for Cc1cc(C)c(S(=O)(=O)N(C2=NOC3CCCCCCC23)S(=O)(=O)c2c(C)cc(C)cc2C)c(C)c1 (centres unmarked) , thanks.
> 50 µM

Also check O=S(=O)(Cc1ccccc1)NC1=NOC2(CCCCCCC2)C1
> 50 µM

Also check O=S(=O)(NC1=NOC2(CCCCCCC2)C1)c1ccc2c(c1)OCCO2
> 50 µM

###

assay: in vitro; conditions: pig
Assay readout: CC50

Look over these answered cases.
- Compound: "Nc1onc(C(=O)OCC23CC4CC(CC(C4)C2)C3)c1CCc1ccccc1 [compound 6, reference compound]"
  Measurement: "> 100 µM"
- Compound: "O=[N+]([O-])c1ccccc1S(=O)(=O)N(C1=NOC2CCCCCCC12)S(=O)(=O)c1ccccc1[N+](=O)[O-] (stereo not drawn)"
  Measurement: "> 50 µM"

Next up:
CC50 lookup needed for Cc1cc(C)c(S(=O)(=O)N(C2=NOC3(CCCCCCC3)C2)S(=O)(=O)c2c(C)cc(C)cc2C)c(C)c1 , thanks.
> 50 µM

###

system: WNV; assay: microbe, parasite or virus in culture; type: cell-based, West Nile virus strain Strix nebulosa-12; conditions: West Nile virus, Vero, read-out: WNV EC50
Assay readout: log10 EC50 (log10 of the value in µM)
The figures below represent log10 of EC50, where EC50 is stated in µM.

- Molecule: "Cc1ccc(S(=O)(=O)NC2=NOC3(CCCCCCC3)C2)cc1 [3d]"
  log10 EC50: 1.15
- Molecule: "O=S(=O)(c1cccs1)N(C1=NOC2(CCCCCCC2)C1)S(=O)(=O)c1cccs1 [4k]"
  log10 EC50: 1.00
- Molecule: "O=S(=O)(c1ccccc1)N(C1=NOC2CCCCCCC12)S(=O)(=O)c1ccccc1 (centres unmarked) [5c]"
  log10 EC50: 1.26

Next up:
log10 EC50 lookup needed for O=S(=O)(c1ccc2c(c1)OCCO2)N(C1=NOC2CCCCCCC12)S(=O)(=O)c1ccc2c(c1)OCCO2 (centres unmarked) [5f] , thanks.
1.20

###

Listing: CC50 of selected compounds
assay: in vitro; settings: pig

Look over these answered cases.
- Compound: "Nc1onc(C(=O)OCC23CC4CC(CC(C4)C2)C3)c1CCc1ccccc1 [compound 6, reference compound]"
  CC50: "> 100 µM"
- Compound: "O=S(=O)(c1ccc(F)cc1F)N(C1=NOC2(CCCCCCC2)C1)S(=O)(=O)c1ccc(F)cc1F"
  CC50: "> 50 µM"

Next up:
CC50 lookup needed for O=S(=O)(NC1=NOC2(CCCCCCC2)C1)c1ccc2c(c1)OCCO2 , thanks.
> 50 µM

###

tested on: WNV; assay: microbe, parasite or virus in culture; assay type: cell-based, West Nile virus strain Strix nebulosa-12; conditions: West Nile virus, Vero, read-out: WNV EC50
Assay readout: pEC50
A value of pEC50 is the negative decimal logarithm of a concentration given in moles per litre.

- Compound: "CS(=O)(=O)N(C1=NOC2(CCCCCCC2)C1)S(C)(=O)=O"
  pEC50: 5.00
- Compound: "Cc1ccc(S(=O)(=O)N(C2=NOC3CCCCCCC23)S(=O)(=O)c2ccc(C)cc2)cc1 (stereo not shown)"
  pEC50: 4.85
- Compound: "O=S(=O)(Cc1ccccc1)NC1=NOC2(CCCCCCC2)C1"
  pEC50: 5.00
- Compound: "O=S(=O)(NC1=NOC2(CCCCCCC2)C1)c1ccc2ccccc2c1"
  pEC50: 4.69
- Compound: "O=S(=O)(NC1=NOC2(CCCCCCC2)C1)c1ccc2c(c1)OCCO2"
  pEC50: 4.74
- Compound: "O=[N+]([O-])c1ccccc1S(=O)(=O)N(C1=NOC2(CCCCCCC2)C1)S(=O)(=O)c1ccccc1[N+](=O)[O-]"
  pEC50: 5.11
- Compound: "O=S(=O)(c1ccc(F)cc1F)N(C1=NOC2(CCCCCCC2)C1)S(=O)(=O)c1ccc(F)cc1F"
  pEC50: 5.01
- Compound: "O=S(=O)(c1cccnc1)N(C1=NOC2(CCCCCCC2)C1)S(=O)(=O)c1cccnc1"
  pEC50: 5.10

Param readout = pEC50; param system = WNV; param query = Cc1cc(C)c(S(=O)(=O)NC2=NOC3(CCCCCCC3)C2)c(C)c1 ; response: value
4.66

Also check O=S(=O)(c1cccs1)N(C1=NOC2CCCCCCC12)S(=O)(=O)c1cccs1 (stereo not shown)
4.74

###

test system: WNV; assay: microbe, parasite or virus in culture; format: cell-based, West Nile virus strain Strix nebulosa-12; details: West Nile virus, Vero, read-out: WNV EC50
pEC50: −log10 of the molar value.
Tick yes if pEC50 is 5 or greater. Tick no if pEC50 is less than 5.

Recorded results for 10 molecules are shown here.
- Molecule: "O=S(=O)(c1cccnc1)N(C1=NOC2CCCCCCC12)S(=O)(=O)c1cccnc1 (stereo not drawn)"
  Category label: "no"
- Molecule: "O=S(=O)(NC1=NOC2(CCCCCCC2)C1)c1ccccc1"
  Category label: "no"
- Molecule: "O=S(=O)(c1ccc2ccccc2c1)N(C1=NOC2CCCCCCC12)S(=O)(=O)c1ccc2ccccc2c1 (stereo not drawn)"
  Category label: "yes"
- Molecule: "O=[N+]([O-])c1ccccc1S(=O)(=O)NC1=NOC2(CCCCCCC2)C1"
  Category label: "no"
- Molecule: "Cc1cc(C)c(S(=O)(=O)N(C2=NOC3(CCCCCCC3)C2)S(=O)(=O)c2c(C)cc(C)cc2C)c(C)c1"
  Category label: "yes"
- Molecule: "O=S(=O)(Cc1ccccc1)N(C1=NOC2CCCCCCC12)S(=O)(=O)Cc1ccccc1 (stereo not drawn)"
  Category label: "yes"
- Molecule: "O=S(=O)(c1ccc2c(c1)OCCO2)N(C1=NOC2(CCCCCCC2)C1)S(=O)(=O)c1ccc2c(c1)OCCO2"
  Category label: "yes"
- Molecule: "O=S(=O)(c1ccc2ccccc2c1)N(C1=NOC2(CCCCCCC2)C1)S(=O)(=O)c1ccc2ccccc2c1"
  Category label: "yes"
- Molecule: "O=S(=O)(c1ccccc1)N(C1=NOC2(CCCCCCC2)C1)S(=O)(=O)c1ccccc1"
  Category label: "yes"
- Molecule: "NC(=O)c1nc(F)c[nH]c1=O [Favipiravir, reference compound]"
  Category label: "no"

Check the entry O=[N+]([O-])c1ccc(S(=O)(=O)N(C2=NOC3CCCCCCC23)S(=O)(=O)c2ccc([N+](=O)[O-])cc2)cc1 (stereo not drawn) : does pEC50 equal or exceed 5?
no

Also check O=S(=O)(Cc1ccccc1)N(C1=NOC2(CCCCCCC2)C1)S(=O)(=O)Cc1ccccc1
no

Also check O=[N+]([O-])c1ccccc1S(=O)(=O)N(C1=NOC2CCCCCCC12)S(=O)(=O)c1ccccc1[N+](=O)[O-] (stereo not drawn)
no
